Measured IC50 values are reported for all entries that follow.
# assayed.target: T1, VEGF (Example 4) (UniProt P15692 27-191)
# T1 chain: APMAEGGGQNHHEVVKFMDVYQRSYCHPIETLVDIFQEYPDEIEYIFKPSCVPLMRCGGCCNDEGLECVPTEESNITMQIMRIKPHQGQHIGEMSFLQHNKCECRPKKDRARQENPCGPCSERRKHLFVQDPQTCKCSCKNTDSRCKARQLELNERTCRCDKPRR
# assay.protocol: VEGF-KDR inhibition
reported.endpoint: IC50 (nM)

[[record]]
binder = "3 (antibody, V domains shown) V domain 1: FQPVLHQPPAMSSALGTTIRLTCTLRNDHDIGVYSVYWYQQRPGHPPRFLLRYFSQSDKSQGPQVPPRFSGSKDVARNRGYLSISELQPEDEAMYYCAMGARSSVTHVFGSGTQLTVLS V domain 2: QPVLHQPPAMSSALGTTIRLTCTLRNDHDIGVYSVYWYQQRPGHPPRFLLRYFSQSDKSQGPQVPPRFSGSKDVARNRGYLSISELQPEDEAMYYCAMGARSSVTHVFGSGTQLTVLS"
reported_endpoint = "IC50"
observed_result = 0.429

[[record]]
binder = "2 (antibody, V domains shown) V domain 1: FQPVLHQPPAMSSALGTTIRLTCTLRNDHDIGVYSVYWYQQRPGHPPRFLLRYFSQSDKSQGPQVPPRFSGSKDVARNRGYLSISELQPEDEAMYYCAMGARSSVTHVFGSGTQLTVLS V domain 2: QPVLHQPPAMSSALGTTIRLTCTLRNDHDIGVYSVYWYQQRPGHPPRFLLRYFSQSDKSQGPQVPPRFSGSKDVARNRGYLSISELQPEDEAMYYCAMGARSSVTHVFGSGTQLTVLS"
reported_endpoint = "IC50"
observed_result = 0.391

[[record]]
binder = "6 (antibody, V domains shown) V domain 1: PQPVLHQPPAMSSALGTTIRLTCTLRNDHDIGVYSVYWYQQRPGHPPRFLLRYFSQSDKSQGPQVPPRFSGSKDVARNRGYLSISELQPEDEAMYYCAMGARSSVTHVFGSGTQLTVLS V domain 2: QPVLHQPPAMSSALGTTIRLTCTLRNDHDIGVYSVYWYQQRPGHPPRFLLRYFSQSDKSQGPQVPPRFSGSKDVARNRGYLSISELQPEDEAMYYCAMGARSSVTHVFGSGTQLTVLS"
reported_endpoint = "IC50"
observed_result = 0.589

